Test system: SR
RUN_DESCRIPTION: Cytotoxicity against Homo sapiens (human) SR assessed as cell growth at 10 uM after 48 hr by SRB assay relative to control
Type: functional
CONDITION_DETAILS: read-out: Activity
Can you tell me growth at 10 µM for the items I'm about to list?
Response body: numeric value in %, unit text excluded.

# input Could you tell me which growth at 10 µM is on file for CC(=O)Oc1c(C2=NN(C(C)=O)C(c3ccccc3[N+](=O)[O-])O2)sc2nnc(-c3ccccc3)c(-c3ccccc3)c12 (stereo unspecified) ?
# output 49

# input Could you tell me which growth at 10 µM is on file for `Oc1c(-c2n[nH]c(=S)o2)sc2nnc(-c3ccccc3)c(-c3ccccc3)c12` ?
# output 83.4

# input Could you tell me which growth at 10 µM is on file for `Oc1c(-c2nnc(SCc3ccccc3)o2)sc2nnc(-c3ccccc3)c(-c3ccccc3)c12` ?
# output 106

# input Could you tell me which growth at 10 µM is on file for `Oc1c(-c2nnc(-c3ccc(Cl)cc3)o2)sc2nnc(-c3ccccc3)c(-c3ccccc3)c12` ?
# output 35.1

# input Could you tell me which growth at 10 µM is on file for `CNc1nnc(-c2sc3nnc(-c4ccccc4)c(-c4ccccc4)c3c2O)s1` ?
# output 78.2

# input Could you tell me which growth at 10 µM is on file for `CCOC(=O)c1c(Nc2ccc(S(=O)(=O)Nc3nccs3)cc2)nnc(-c2ccccc2)c1-c1ccccc1` ?
# output 76.2
